Attribution: patent US20170342144A1

Target: T1, human TGFβ2 (human, UniProt P61812 303-414)
T1 construct: also called TGFβ2 homodimer
T1 sequence: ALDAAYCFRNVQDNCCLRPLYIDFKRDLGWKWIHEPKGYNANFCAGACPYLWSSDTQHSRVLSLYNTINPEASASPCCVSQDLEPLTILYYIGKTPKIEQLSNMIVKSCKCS
Test: Biacore off-rate vs wt GC1008, 50 nM
Param label: returns rule met when kd var/kd wt < 1, returns rule not met otherwise, including exact equality.

{"BINDER": "I52F (antibody, V domains shown, GC1008 IgG4 variant) VH: QVQLVQSGAEVKKPGSSVKVSCKASGYTFSSNVISWVRQAPGQGLEWMGGVFPIVDIANYAQRFKGRVTITADESTSTTYMELSSLRSEDTAVYYCASTLGLVLDAMDYWGQGTLVTVSS VL: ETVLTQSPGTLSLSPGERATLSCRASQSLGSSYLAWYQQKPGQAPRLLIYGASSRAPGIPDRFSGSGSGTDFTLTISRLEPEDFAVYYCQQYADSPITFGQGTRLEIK", "LABEL VALUE": "rule not met"}
{"BINDER": "Y27N (antibody, V domains shown, GC1008 IgG4 variant) VH: QVQLVQSGAEVKKPGSSVKVSCKASGNTFSSNVISWVRQAPGQGLEWMGGVIPIVDIANYAQRFKGRVTITADESTSTTYMELSSLRSEDTAVYYCASTLGLVLDAMDYWGQGTLVTVSS VL: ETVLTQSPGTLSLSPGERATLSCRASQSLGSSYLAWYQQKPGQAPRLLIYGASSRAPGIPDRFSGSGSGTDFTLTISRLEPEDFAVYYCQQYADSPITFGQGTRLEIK", "LABEL VALUE": "rule not met"}
{"BINDER": "N32E (antibody, V domains shown, GC1008 IgG4 variant) VH: QVQLVQSGAEVKKPGSSVKVSCKASGYTFSSEVISWVRQAPGQGLEWMGGVIPIVDIANYAQRFKGRVTITADESTSTTYMELSSLRSEDTAVYYCASTLGLVLDAMDYWGQGTLVTVSS VL: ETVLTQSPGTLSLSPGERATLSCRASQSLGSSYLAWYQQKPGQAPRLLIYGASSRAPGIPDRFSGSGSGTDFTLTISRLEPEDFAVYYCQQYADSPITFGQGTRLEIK", "LABEL VALUE": "rule met"}
{"BINDER": "S31P (antibody, V domains shown, GC1008 IgG4 variant) VH: QVQLVQSGAEVKKPGSSVKVSCKASGYTFSPNVISWVRQAPGQGLEWMGGVIPIVDIANYAQRFKGRVTITADESTSTTYMELSSLRSEDTAVYYCASTLGLVLDAMDYWGQGTLVTVSS VL: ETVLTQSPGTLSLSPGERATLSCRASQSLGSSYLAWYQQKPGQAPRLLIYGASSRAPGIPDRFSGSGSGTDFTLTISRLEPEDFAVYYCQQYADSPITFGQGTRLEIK", "LABEL VALUE": "rule not met"}
{"BINDER": "D56I (antibody, V domains shown, GC1008 IgG4 variant) VH: QVQLVQSGAEVKKPGSSVKVSCKASGYTFSSNVISWVRQAPGQGLEWMGGVIPIVIIANYAQRFKGRVTITADESTSTTYMELSSLRSEDTAVYYCASTLGLVLDAMDYWGQGTLVTVSS VL: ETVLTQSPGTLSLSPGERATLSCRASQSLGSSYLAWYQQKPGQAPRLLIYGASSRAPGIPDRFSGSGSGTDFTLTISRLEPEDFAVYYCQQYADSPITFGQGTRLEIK", "LABEL VALUE": "rule not met"}
{"BINDER": "Y27H (antibody, V domains shown, GC1008 IgG4 variant) VH: QVQLVQSGAEVKKPGSSVKVSCKASGHTFSSNVISWVRQAPGQGLEWMGGVIPIVDIANYAQRFKGRVTITADESTSTTYMELSSLRSEDTAVYYCASTLGLVLDAMDYWGQGTLVTVSS VL: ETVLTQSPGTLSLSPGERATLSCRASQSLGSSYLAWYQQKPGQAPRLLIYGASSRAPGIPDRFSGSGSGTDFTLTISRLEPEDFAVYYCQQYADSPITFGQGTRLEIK", "LABEL VALUE": "rule not met"}
{"BINDER": "S30N (antibody, V domains shown, GC1008 IgG4 variant) VH: QVQLVQSGAEVKKPGSSVKVSCKASGYTFNSNVISWVRQAPGQGLEWMGGVIPIVDIANYAQRFKGRVTITADESTSTTYMELSSLRSEDTAVYYCASTLGLVLDAMDYWGQGTLVTVSS VL: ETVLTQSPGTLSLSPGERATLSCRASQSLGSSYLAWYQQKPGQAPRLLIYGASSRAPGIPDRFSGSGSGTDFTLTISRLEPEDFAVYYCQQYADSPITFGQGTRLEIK", "LABEL VALUE": "rule not met"}
{"BINDER": "S30F (antibody, V domains shown, GC1008 IgG4 variant) VH: QVQLVQSGAEVKKPGSSVKVSCKASGYTFFSNVISWVRQAPGQGLEWMGGVIPIVDIANYAQRFKGRVTITADESTSTTYMELSSLRSEDTAVYYCASTLGLVLDAMDYWGQGTLVTVSS VL: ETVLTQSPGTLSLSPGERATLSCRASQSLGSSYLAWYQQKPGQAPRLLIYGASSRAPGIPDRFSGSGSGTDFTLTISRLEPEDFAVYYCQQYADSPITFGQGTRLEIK", "LABEL VALUE": "rule met"}
{"BINDER": "E74C (antibody, V domains shown, GC1008 IgG4 variant) VH: QVQLVQSGAEVKKPGSSVKVSCKASGYTFSSNVISWVRQAPGQGLEWMGGVIPIVDIANYAQRFKGRVTITADCSTSTTYMELSSLRSEDTAVYYCASTLGLVLDAMDYWGQGTLVTVSS VL: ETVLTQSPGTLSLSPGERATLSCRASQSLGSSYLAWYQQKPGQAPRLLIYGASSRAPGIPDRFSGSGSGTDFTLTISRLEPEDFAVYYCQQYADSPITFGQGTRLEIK", "LABEL VALUE": "rule met"}
